- study_system: human Argonaute-2 loaded with miR-122 (hAgo2:miR-122) (Homo sapiens, UniProt Q9UKV8 1-859)
- Sequence (Q9UKV8 whole entry): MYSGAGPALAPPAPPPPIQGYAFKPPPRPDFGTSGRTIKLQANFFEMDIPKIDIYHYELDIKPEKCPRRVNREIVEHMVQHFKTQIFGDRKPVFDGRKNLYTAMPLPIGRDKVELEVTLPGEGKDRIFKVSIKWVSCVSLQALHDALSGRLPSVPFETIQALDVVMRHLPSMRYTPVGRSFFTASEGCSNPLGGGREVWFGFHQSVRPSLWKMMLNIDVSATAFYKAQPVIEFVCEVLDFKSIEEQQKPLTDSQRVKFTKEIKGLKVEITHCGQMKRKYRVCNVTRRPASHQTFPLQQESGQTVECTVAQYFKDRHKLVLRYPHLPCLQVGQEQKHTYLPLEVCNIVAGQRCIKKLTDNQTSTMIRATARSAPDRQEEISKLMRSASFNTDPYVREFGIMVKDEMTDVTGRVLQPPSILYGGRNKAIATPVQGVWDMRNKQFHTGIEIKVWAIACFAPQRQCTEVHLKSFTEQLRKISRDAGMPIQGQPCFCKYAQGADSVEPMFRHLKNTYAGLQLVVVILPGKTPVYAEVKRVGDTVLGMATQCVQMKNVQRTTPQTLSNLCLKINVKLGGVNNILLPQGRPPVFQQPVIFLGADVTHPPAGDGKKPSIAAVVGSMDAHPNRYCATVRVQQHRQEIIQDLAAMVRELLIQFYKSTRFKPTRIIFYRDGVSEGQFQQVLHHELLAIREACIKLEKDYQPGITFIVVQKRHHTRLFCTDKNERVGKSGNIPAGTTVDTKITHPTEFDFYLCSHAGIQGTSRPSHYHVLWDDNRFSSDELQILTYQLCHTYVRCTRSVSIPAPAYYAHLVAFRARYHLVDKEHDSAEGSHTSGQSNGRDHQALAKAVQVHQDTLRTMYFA
- assay_notes: EMSA
experimental_endpoint: pKd
// field semantics: pKd = negative decimal log of concentration (mol/L)

May I ask what pKd has been recorded for miR-122 guide / HCV 1-42 WT target (mixed, 5'-phosphate on miR-122 guide) RNA 1: UGGAGUGUGACAAUGGUGUUUGU RNA 2: ACCUGCCCCUAAUAGGGGCGACACUCCGCCAUGAAUCACUCC ?
9.60
